- measuredTarget: T1, LILRB2 chimeric receptor on LILRB2 reporter cells (extracellular domain of LILRB2 fused with … (UniProt Q8N423 22-460))
- T1 construct: extracellular domain;domain: transmembrane/intracellular domains; associates with DAP12; also called LILRB2-expressing reporter cells
- testName: flow cytometry on LILRB2 reporter cells, APC anti-human IgG
Provide the reported percent of LILRB2 reporter cells labeled of each item.

B2-16 (antibody, V domains shown, also called B2-16_HC; B2-16_LC) VH: QVQLVQSGAEVKKPGSSVKVSCKASGGTFSSYAISWVRQAPGQGLEWMGGIIPIFGTANYAQKFQGRVTITADESTSTAYMELSSLRSEDTAVYYCASGIIPDNPYGMDVWGQGTMVSVSS VL: DIVMTQSPLSLPVTLGQPASISCTSSQSLVYSDGNTYLNWFHQRPGQSPRRLFYKVSNRASGVPDRFSGSGSGTDFTLKISRVEAEDLGVYYCMQGTHWPVTFGQGTRLEIK : > 95%

What value of percent of LILRB2 reporter cells labeled has been reported for the following binder? B2-17 (antibody, V domains shown, also called B2-17_HC; B2-17_LC) VH: EVQLLDSGPRLLKPSETLSLTCGVSGVSTSSTHWWSWVRQTPGKGLEWIGEILHNGNTNSNPSLKSRVSMSIDKSRNQFSLQLKSMTAADTAVYYCASASPNWGASGAFDAWAQGTMVTVSS VL: QSVLTQPPSASATPGQRVTISCSGSSSNIGSNPVNWYQQVPGMAPELVMYSDNQRPSGVPDRFSGSNSGTSASLAISGLQSEDEADYYCSTWDDSLNGLVFGTGTKVTVL
> 95%
